// values below are reported Score_si4
system: CHIKV; type: cell-based, chikungunya virus
Parameter measured: Score_si4

| Substance | Parameter measured | Numeric readout |
| --- | --- | --- |
| s17302 (GCTCCTTTAGGTTATGATA; chemistry not given here) | Score_si4 | -0.05 |
| Hs_TRRAP_1 (AAGATTCGACAGCAAGTTAAA; chemistry not given here) | Score_si4 | 1.01 |
| Hs_WDR40A_2 (AACACTGATAATAGGAAGTAA; chemistry not given here) [reference compound] | Score_si4 | -0.22 |
| Hs_MGC2803_1 (TGCGATGTACATAACTATTTA; chemistry not given here) | Score_si4 | -0.65 |
| s18079 (CAATAGTAAAGGGATATAA; chemistry not given here) [reference compound] | Score_si4 | -0.28 |
| s16459 (GATGGATCCATGTAATACA; chemistry not given here) | Score_si4 | 0.81 |
| s9031 (CGACGACAGCTACTGGTTT; chemistry not given here) | Score_si4 | 0.9 |
| Hs_CLPP_1 (sense CACGATGCAGTACATCCTCAA; chemistry not given here) | Score_si4 | 0.97 |
| s19040 (sense GTACATAACATCAATTTCA; chemistry not given here) | Score_si4 | 0.32 |
| s922 (CATTAACATTGTTCGCAAA; chemistry not given here) | Score_si4 | 1.81 |
| s25626 (sense CAAATCCTATAGTATAACA; chemistry not given here) [reference compound] | Score_si4 | -0.37 |
| s28378 (sense CATTGTCACTTATTCGACT; chemistry not given here) | Score_si4 | 1.57 |

====

tested on: CHIKV; format: cell-based, chikungunya virus
Response field label: string, one of 1 (Score_si2 strictly below 1) or -1.

| Substance | Class |
| --- | --- |
| Hs_POLR1A_2 (TCGGGAGGAATTAGAACAATA; chemistry not given here) | -1 |
| Hs_ENTPD2_1 (CACGTCCATGTTTATCTACAA; chemistry not given here) | -1 |
| s38699 (CCAGGAACTATGACACGTA; chemistry not given here) | 1 |
| s17019 (CCACGTGATAAATCAAGAA; chemistry not given here) | -1 |
| s27640 (sense TGAAAAACGTAGAAATGAA; chemistry not given here) | -1 |
| Hs_GLTSCR2_4 (sense CAAGTTCAAACGCAAGTACAA; chemistry not given here) | -1 |
| s31658 (CGGCCTCTGAGGTGATCAA; chemistry not given here) | -1 |
| s24800 (sense CTATGGATGTTGATGTAGA; chemistry not given here) | -1 |
| s21625 (sense GCAGCCTTGTTGCTCTTAA; chemistry not given here) | -1 |
| s28367 (sense CGACAAGAACGAAGACAGA; chemistry not given here) [reference compound] | 1 |
| s21424 (sense GCAGTGAAATATCCATGAT; chemistry not given here) | 1 |
| Hs_RAB3D_4 (sense AAGCAAGTTCTTGCCCAATCA; chemistry not given here) | -1 |
| s29 (CCCATAATATCATTGAGAA; chemistry not given here) | -1 |
| s37715 (CCGGAGAACCTGAAACTCA; chemistry not given here) | -1 |
| s27209 (sense GGGTATAGAGGATAACCAA; chemistry not given here) [reference compound] | 1 |

====

system: CHIKV; assay type: cell-based, chikungunya virus

| Substance | Score_si4 |
| --- | --- |
| s9666 (CGTGTACTCTGTTTCGACA; chemistry not given here) [reference compound] | -0.83 |
| s26872 (sense GGGTTGACCTCATCCTCGA; chemistry not given here) | 1.69 |
| s6670 (sense CAACAGGAGGAAGACTTTA; chemistry not given here) | -0.15 |
| s10094 (AGATCAAAGAGATCCGCGA; chemistry not given here) | 0.28 |

====

test system: HEK-293 cells; assay: Cell viability, Cell Proliferation Reagent WST-1; format: cell-based, human; conditions: Homo sapiens, HEK293, 18 h, read-out: WST-1 IC50
// values below are reported IC50
Parameter measured: IC50

| Compound | Result |
| --- | --- |
| Cc1ccc(F)c(NC(=O)Nc2ccc(-c3cccc4[nH]nc(N)c34)cc2)c1 [Linifanib] | > 60 µM |
| CCCCCCCCCCCCCCOc1ccc(C(=O)O)o1 [TOFA, 5-tetradecyloxy-2-furoic acid] | > 60 µM |
| O=c1cc(-c2ccccc2)oc2ccc(O)cc12 [6-Hydroxyflavone] | > 60 µM |

====

tested on: CHIKV; assay type: cell-based, chikungunya virus
// values below are reported Score_si2

| Substance | Score_si2 |
| --- | --- |
| Hs_GPS1_6 (sense CAGCCTGGATCTGGAACAGTA; chemistry not given here) | 1.76 |
| Hs_CAMKK2_7 (sense CTAGCTGATTGTTGTGGTCAA; chemistry not given here) | 1.31 |
| Hs_NPAT_1 (ACCAATGCACATATAATTTAA; chemistry not given here) [reference compound] | -1.26 |
| s1522 (sense GGATCAAGCTGCCCATCTA; chemistry not given here) | 1.17 |
| Hs_CLTC_12 (sense CCGGAGAGATTTCTTCGTGAA; chemistry not given here) | 2.21 |
| Hs_SLC6A19_4 (sense CCAGAAGATCTCCTACCCGAA; chemistry not given here) | 0.84 |
| Hs_FTSJ2_1 (sense CAGAGGAATTCCAGAATGTAA; chemistry not given here) | 1.91 |
| Hs_GUCY1B3_1 (sense AAGGGTCAAATGATCTACTTA; chemistry not given here) [reference compound] | -0.88 |
| Hs_IQGAP1_1 (sense CTGGGAGATAATGCCCACTTA; chemistry not given here) | 1.04 |
| s11587 (sense CAGGTCACATTGTTCCTGA; chemistry not given here) | 1.27 |
| Hs_KRTHA2_2 (sense ATGGTTGTGAACATTGATAAT; chemistry not given here) | 1.02 |
| Hs_ATP6AP2_1 (ATGGGCTAATATGGATACTAA; chemistry not given here) | 0.84 |
| Hs_SULF1_4 (sense AGCATGGATTTGATTATGCAA; chemistry not given here) [reference compound] | -1.41 |
| Hs_MRPS12_2 (CTGCTGGGACAAGACACTGTA; chemistry not given here) | 1.92 |
| s16316 (GAATTAGGAAGGACTATTT; chemistry not given here) | 0.85 |
| Hs_APPL_3 (TAGGAATAGGATAATGATATA; chemistry not given here) [reference compound] | -1.06 |
| Hs_DC-UbP_1 (AAGGCAGTTAAGAAATAGATA; chemistry not given here) | 1.13 |
